Molecular target: Human cytomegalovirus DNA polymerase (Human cytomegalovirus)
Construct: made in house; host or cells: SF21 insect cells (baculovirus vector)
Sequence (P08546 whole entry): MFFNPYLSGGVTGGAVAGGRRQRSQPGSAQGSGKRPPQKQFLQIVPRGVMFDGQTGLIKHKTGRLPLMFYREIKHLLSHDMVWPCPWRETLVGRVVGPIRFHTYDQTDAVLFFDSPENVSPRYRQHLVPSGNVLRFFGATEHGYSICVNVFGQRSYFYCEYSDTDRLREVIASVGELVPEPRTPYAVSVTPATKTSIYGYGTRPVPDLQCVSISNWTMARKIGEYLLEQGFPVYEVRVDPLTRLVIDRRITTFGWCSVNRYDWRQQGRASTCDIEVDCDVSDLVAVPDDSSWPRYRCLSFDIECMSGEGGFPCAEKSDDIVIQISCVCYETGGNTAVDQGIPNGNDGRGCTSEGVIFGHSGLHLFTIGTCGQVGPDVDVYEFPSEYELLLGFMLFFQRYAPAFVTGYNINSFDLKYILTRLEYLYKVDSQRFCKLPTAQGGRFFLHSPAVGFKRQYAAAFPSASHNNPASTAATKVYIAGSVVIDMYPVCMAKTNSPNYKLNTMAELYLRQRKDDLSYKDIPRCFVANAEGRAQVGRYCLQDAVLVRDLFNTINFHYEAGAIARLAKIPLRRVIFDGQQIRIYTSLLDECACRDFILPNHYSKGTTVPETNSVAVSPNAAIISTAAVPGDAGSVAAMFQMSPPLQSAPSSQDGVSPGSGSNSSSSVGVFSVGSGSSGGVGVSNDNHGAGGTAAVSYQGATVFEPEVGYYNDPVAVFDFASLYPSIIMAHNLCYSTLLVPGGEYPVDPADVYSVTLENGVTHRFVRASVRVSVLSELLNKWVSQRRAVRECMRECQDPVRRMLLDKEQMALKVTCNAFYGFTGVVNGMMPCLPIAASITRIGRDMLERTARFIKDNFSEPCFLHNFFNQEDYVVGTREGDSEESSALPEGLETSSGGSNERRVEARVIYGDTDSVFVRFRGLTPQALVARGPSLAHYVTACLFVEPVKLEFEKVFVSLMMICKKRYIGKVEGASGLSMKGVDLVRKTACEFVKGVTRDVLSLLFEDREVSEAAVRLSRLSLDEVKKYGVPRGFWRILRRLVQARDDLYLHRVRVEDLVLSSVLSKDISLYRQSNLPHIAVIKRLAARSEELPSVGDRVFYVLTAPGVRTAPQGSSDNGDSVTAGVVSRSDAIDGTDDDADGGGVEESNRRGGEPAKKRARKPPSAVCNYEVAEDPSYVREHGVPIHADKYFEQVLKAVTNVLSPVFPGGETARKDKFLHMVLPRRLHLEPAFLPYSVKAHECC
Test: CMV polymerase assay (AlphaLISA)
Format: biochemical
Details: HCMV polymerase 0.2 nM; 30 min pre-incubation; 60 min at 37° C.; read-out: CMV (IC50)
OUTCOME MEASURE: IC50 (µM)

>>> measurement("COc1nc(-c2occc2C=O)c(O[C@H]2CCN3C(=O)OC[C@@H]3C2)cc1C(=O)NCc1ccc(Cl)cc1")
0.018
>>> measurement("COc1nc(N2CC3(CC(O)C3)C2)c(O[C@H]2CCN3C(=O)OC[C@@H]3C2)cc1C(=O)NCc1ccc(Cl)cc1")
0.00523
>>> measurement("COc1nc(-c2cc3cccc(OC)c3[nH]2)c(O[C@H]2CCN3C(=O)OC[C@@H]3C2)cc1C(=O)NCc1ccc(Cl)cc1")
0.0237

====

Target: varicella zoster virus DNA polymerase (Varicella-zoster virus)
Sequence (P09252 whole entry): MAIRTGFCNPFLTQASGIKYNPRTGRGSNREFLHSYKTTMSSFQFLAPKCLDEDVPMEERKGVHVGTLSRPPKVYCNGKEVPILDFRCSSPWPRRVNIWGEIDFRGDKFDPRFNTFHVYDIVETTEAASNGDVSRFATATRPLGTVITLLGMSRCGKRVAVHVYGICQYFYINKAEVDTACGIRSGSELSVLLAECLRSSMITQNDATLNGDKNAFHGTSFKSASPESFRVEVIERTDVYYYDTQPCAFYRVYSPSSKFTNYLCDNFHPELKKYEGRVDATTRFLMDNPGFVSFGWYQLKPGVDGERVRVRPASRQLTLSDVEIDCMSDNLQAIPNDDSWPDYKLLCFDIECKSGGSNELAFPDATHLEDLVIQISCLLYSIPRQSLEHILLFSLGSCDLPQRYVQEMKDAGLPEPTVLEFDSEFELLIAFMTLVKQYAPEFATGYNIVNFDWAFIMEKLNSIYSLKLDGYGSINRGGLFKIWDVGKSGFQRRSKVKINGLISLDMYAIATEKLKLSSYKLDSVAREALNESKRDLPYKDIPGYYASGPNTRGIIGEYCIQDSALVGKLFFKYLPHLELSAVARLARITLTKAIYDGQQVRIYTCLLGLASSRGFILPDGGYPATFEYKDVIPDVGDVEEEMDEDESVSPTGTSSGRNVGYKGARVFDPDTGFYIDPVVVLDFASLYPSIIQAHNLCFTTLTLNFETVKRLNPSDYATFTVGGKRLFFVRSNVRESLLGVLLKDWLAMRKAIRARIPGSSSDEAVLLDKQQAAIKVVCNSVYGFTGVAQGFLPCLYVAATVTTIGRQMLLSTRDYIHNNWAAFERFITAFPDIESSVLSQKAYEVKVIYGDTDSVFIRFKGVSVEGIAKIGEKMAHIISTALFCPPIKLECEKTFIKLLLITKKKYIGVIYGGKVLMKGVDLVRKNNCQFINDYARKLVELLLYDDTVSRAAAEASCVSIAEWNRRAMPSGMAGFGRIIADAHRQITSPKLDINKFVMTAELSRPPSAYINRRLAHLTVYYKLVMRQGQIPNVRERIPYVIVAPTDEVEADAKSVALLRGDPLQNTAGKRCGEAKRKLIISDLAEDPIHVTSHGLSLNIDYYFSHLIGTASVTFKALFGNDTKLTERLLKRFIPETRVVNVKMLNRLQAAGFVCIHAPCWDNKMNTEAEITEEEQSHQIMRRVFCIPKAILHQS
OUTCOME MEASURE: IC50 (nM)

>>> measurement("COc1nc(-c2cc(C)no2)c(O[C@H]2CCN3C(=O)OC[C@@H]3C2)cc1C(=O)NCc1ccc(Cl)cc1 [Compound 9]")
1.71
>>> measurement("COc1nc(-c2ncco2)c(O[C@H]2CCN3C(=O)OC[C@@H]3C2)cc1C(=O)NCc1ccc(Cl)cc1 [Compound 62]")
0.252
>>> measurement("COc1nc(-c2cnn3c2CCC3)c(O[C@H]2CCN3C(=O)OC[C@@H]3C2)cc1C(=O)NCc1ccc(Cl)cc1 [Compound 24]")
4.03
>>> measurement("COc1nc(-c2cnn(C3CC3)c2)c(O[C@H]2CCN3C(=O)OC[C@@H]3C2)cc1C(=O)NCc1ccc(Cl)cc1 [Compound 22]")
4.84

====

Tested on: VZV
Test: Viral qPCR assay, VZV
Type: cell-based, varicella zoster virus
Conditions: Human alphaherpesvirus 3, 72 h, MeWo or MRC5 cells, 0.04-0.1 pfu/cell, growth medium, viral genome copies by qPCR
Description: MRC5 cells, Vero cells, and MeWo cells were obtained from ATCC, and were maintained at 37° C./5% CO2/90% relative humidity in Minimal Essential Medium with 10% fetal bovine serum, […] L-glutamine, 100 units/ml penicillin and 100 ug/ml streptomycin. […] 7-point, serial 10-fold dilutions of a plasmid standard were run on each plate to generate a standard curve, and genome copies numbers were calculated by plotting experimental Ct onto linear regression of the standard curve. […]
Binarize EC50 at 200 nM; below is met, at or above is not met.

>>> class_name("COc1nc(-c2cnn(C(F)F)c2)c(O[C@H]2CCN3C(=O)OC[C@@H]3C2)cc1C(=O)NCc1ccc(C#N)cc1F")
"met"
>>> class_name("COc1nc(-c2cc3ccccc3[nH]2)c(O[C@H]2CCN3C(=O)OC[C@@H]3C2)cc1C(=O)NCc1ccc(Cl)cc1")
"not met"
>>> class_name("COc1nc(-c2cnn(C(F)F)c2)c(O[C@H]2CCN3C(=O)OC[C@@H]3C2)cc1C(=O)NCc1ccc(Cl)c(F)c1")
"met"
>>> class_name("CC(O)COc1nc(-c2cnn(C(F)F)c2)c(O[C@H]2CCN3C(=O)OC[C@@H]3C2)cc1C(=O)NCc1ccc(Cl)cc1 (stereo partly shown)")
"not met"
>>> class_name("COc1nc(-c2cncc(CO)c2)c(O[C@H]2CCN3C(=O)OC[C@@H]3C2)cc1C(=O)NCc1ccc(Cl)cc1")
"not met"
>>> class_name("COc1nc(-c2cnn(C(F)F)c2)c(O[C@H]2CCN3C(=O)OC[C@@H]3C2)cc1C(=O)NCc1cc(F)c(Cl)c(F)c1")
"not met"
>>> class_name("O=C(NCc1ccc(Cl)cc1)c1cc(O[C@H]2CCN3C(=O)OC[C@@H]3C2)c(-c2cnn(C(F)F)c2)nc1OCC1CC1(F)F (stereo partly shown)")
"not met"
>>> class_name("COc1nc(C2CC3(CC(O)C3)C2)c(O[C@H]2CCN3C(=O)OC[C@@H]3C2)cc1C(=O)NCc1ccc(Cl)cc1 (stereo partly shown)")
"not met"
>>> class_name("COc1nc(-c2cnc(C3CC3)s2)c(O[C@H]2CCN3C(=O)OC[C@@H]3C2)cc1C(=O)NCc1ccc(Cl)cc1")
"met"
>>> class_name("COc1ncc(O[C@H]2CCN3C(=O)OC[C@@H]3C2)cc1C(=O)NCc1ccc(Cl)cc1")
"not met"
